Recorded composite z-score for the following compounds
# Tested on: Wnt5a (protein binding on small-molecule microarray)
# EXPERIMENT SUMMARY: Wnt5a binders on small-molecule microarray, primary screen, biophysical, 635/667 nm fluorescence (AID 1142);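 also: fluorescence read at 667 nm with signal to noise per printed feature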
# MEASUREMENT SETUP: 635 nm fluorescence, higher = more signal

>  <MOLECULAR STRING>
CCCCC#C[C@@H]1C=C[C@H](OC(C)=O)[C@@H](COC(C)=O)O1

>  <composite z-score>
0.03

$$$$
>  <MOLECULAR STRING>
CCOC(=O)CCN1C(=O)[C@H]2[C@H]3[C@H](O)[C@H](O)CC(=NOCC(C)C)[C@H]3CC[C@H]2C1=O

>  <composite z-score>
0.0106

$$$$
>  <MOLECULAR STRING>
COc1ccc(O[C@H]2C=C[C@@H](c3ccccc3)O[C@@H]2COC(=O)CCC(C)=NOC[C@@H](O)[C@H]2O[C@@H]3OC(C)(C)O[C@@H]3[C@H]2O)cc1

>  <composite z-score>
0.383

$$$$
>  <MOLECULAR STRING>
O=c1n(-c2ccccc2)c(=O)n2n1CC[C@@H]1C(=NOCc3ccccc3)[C@H]3O[C@H]3[C@@H](O)[C@@H]12

>  <composite z-score>
0.18

$$$$
>  <MOLECULAR STRING>
CCOC(=O)C1=NO[C@]2(C=C(Br)C3(OCCCO3)[C@H]3O[C@H]32)C1

>  <composite z-score>
0.0562

$$$$
>  <MOLECULAR STRING>
Cc1cc2c(c(=O)o1)[C@@H](O)[C@H]1O[C@H]1C2=O

>  <composite z-score>
0.149

$$$$

---

Recorded composite z-score for the following molecules
# MEASUREMENT TARGET: Calmodulin-1 (Homo sapiens) (UniProt P0DP23)
# EXPERIMENT SUMMARY: CALM1 binders on microarrays, EGTA buffer, profiling panel, biochemical, small-molecule microarray, Cy5-labelled CALM1 (AID 1111);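 also: labelled calmodulin applied in Tris saline Tween buffer holding calcium plus EGTA and DTT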
# MEASUREMENT SETUP: Cy5-CALM1 binding fluorescence, higher = more signal
VALUE KIND: composite z-score

>  <MOLECULE>
COc1ccc(C#C[C@@H]2C=C[C@H](OC(C)=O)[C@@H](COC(C)=O)O2)cc1

>  <MEASUREMENT TARGET>
Calmodulin-1 (Homo sapiens) (UniProt P0DP23)

>  <RECORDED VALUE>
-0.268

$$$$
>  <MOLECULE>
CCOC(=O)[C@H](CC(C)C)NC(=O)CCC1CC(OC(=O)NCCc2ccc(F)cc2)CC2(CCCC(COC(=O)NCC(c3ccccc3)c3ccccc3)O2)O1 (stereo not given in full)

>  <MEASUREMENT TARGET>
Calmodulin-1 (Homo sapiens) (UniProt P0DP23)

>  <RECORDED VALUE>
0.479

$$$$
>  <MOLECULE>
CCOC(=O)NN=C1C[C@@H](O)[C@@H](O)[C@@H]2[C@@H]3C(=O)N(Cc4ccccc4)C(=O)[C@@H]3CC[C@H]12

>  <MEASUREMENT TARGET>
Calmodulin-1 (Homo sapiens) (UniProt P0DP23)

>  <RECORDED VALUE>
0.903

$$$$
>  <MOLECULE>
CC(C)CON=C1C[C@@H](O)[C@@H](O)[C@@H]2[C@@H]3C(=O)N(Cc4ccc5c(c4)OCO5)C(=O)[C@@H]3CC[C@H]12

>  <MEASUREMENT TARGET>
Calmodulin-1 (Homo sapiens) (UniProt P0DP23)

>  <RECORDED VALUE>
-0.382

$$$$
>  <MOLECULE>
COc1ccc(O[C@H]2C=C[C@@H](c3ccccc3)O[C@@H]2COC(=O)CCC(C)=NOC[C@@H](O)[C@H]2O[C@@H]3OC(C)(C)O[C@@H]3[C@H]2O)cc1

>  <MEASUREMENT TARGET>
Calmodulin-1 (Homo sapiens) (UniProt P0DP23)

>  <RECORDED VALUE>
-0.166

$$$$

---

# EXPERIMENT SUMMARY: compound binding in COS7 lysate, probe aLAP1, primary screen, cell lysate, small-molecule microarray (AID 1124);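 also: lysate comes from COS7 cells expressing LAP1 and is applied at 0.3 µg/mL; score merges spot fluorescence near 667 nm with signal-to-noise over triplicate slides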
# MEASUREMENT SETUP: probe aLAP1, fluorescence, higher = more signal
VALUE KIND: composite z-score

>  <MOLECULE>
CC(C)CON=C1C[C@@H](O)[C@@H](O)[C@@H]2[C@@H]3C(=O)N(Cc4ccc5c(c4)OCO5)C(=O)[C@@H]3CC[C@H]12

>  <VALUE KIND>
composite z-score

>  <RECORDED VALUE>
-0.358

$$$$
>  <MOLECULE>
C[C@@H](c1ccccc1)N1C(=O)[C@H]2[C@H]3[C@H](O)[C@H](O)CC(=O)[C@H]3CC[C@H]2C1=O

>  <VALUE KIND>
composite z-score

>  <RECORDED VALUE>
0.567

$$$$
>  <MOLECULE>
Cn1c(=O)n2n(c1=O)[C@H]1[C@H](O)[C@@H]3O[C@@H]3C(=NOCc3ccccc3)[C@H]1CC2

>  <VALUE KIND>
composite z-score

>  <RECORDED VALUE>
-0.0493

$$$$
>  <MOLECULE>
O=C1[C@H]2[C@H]3[C@H](O)[C@H](O)CC(=NOC[C@@H](O)COCc4ccco4)[C@H]3CC[C@H]2C(=O)N1c1ccc(F)cc1F

>  <VALUE KIND>
composite z-score

>  <RECORDED VALUE>
0.0839

$$$$
>  <MOLECULE>
C[C@H]1CC[C@H]2C(=O)O[C@H](COc3ccc(C(C)(C)C)cc3)CN2[C@@H]1c1ccc(Br)cc1

>  <VALUE KIND>
composite z-score

>  <RECORDED VALUE>
0.253

$$$$
>  <MOLECULE>
CO[C@@H]1COC(=O)[C@@H](C)COC(=O)[C@@H](C)NC(=O)CC=C[C@@H]1C

>  <VALUE KIND>
composite z-score

>  <RECORDED VALUE>
0.262

$$$$
>  <MOLECULE>
Cc1ccc(S(=O)(=O)NC(CCc2ccccc2)CC(=O)C(C)(C)C)cc1 (centres undefined)

>  <VALUE KIND>
composite z-score

>  <RECORDED VALUE>
-0.113

$$$$
>  <MOLECULE>
CC1O[C@H]2C3=C(C(=O)[C@@H]4O[C@@H]4[C@H]3O)[C@@H]1C1[C@@H](C)OC=C3[C@H](O)C4O[C@@H]4C(=NOCc4ccccc4)[C@]312 (some centres undefined)

>  <VALUE KIND>
composite z-score

>  <RECORDED VALUE>
-0.136

$$$$
>  <MOLECULE>
C#CCCCON=C1[C@H]2CCn3c(=O)n(-c4ccccc4)c(=O)n3[C@H]2[C@H](O)[C@@H]2O[C@H]12

>  <VALUE KIND>
composite z-score

>  <RECORDED VALUE>
-0.0252

$$$$
>  <MOLECULE>
CC(C)=CCCC(C)=CCON=C1C[C@@H](O)[C@@H](O)[C@@H]2[C@@H]3C(=O)N(Cc4ccccc4)C(=O)[C@@H]3CC[C@H]12

>  <VALUE KIND>
composite z-score

>  <RECORDED VALUE>
0.146

$$$$
>  <MOLECULE>
CCOC(=O)NN=C1C[C@@H](O)[C@@H](O)[C@@H]2[C@@H]3C(=O)N(Cc4ccc5c(c4)OCO5)C(=O)[C@@H]3CC[C@H]12

>  <VALUE KIND>
composite z-score

>  <RECORDED VALUE>
-0.387

$$$$
>  <MOLECULE>
CCCNC(=O)OC[C@H]1O[C@H](CCON=C(C)CCC(=O)OC[C@H]2O[C@H](c3ccccc3)C=C[C@@H]2Oc2ccc(OC)cc2)C=C[C@@H]1Oc1ccc(OC)cc1

>  <VALUE KIND>
composite z-score

>  <RECORDED VALUE>
-0.155

$$$$
>  <MOLECULE>
O=C1C[C@@H](O)[C@@H](O)[C@@H]2[C@@H]3C(=O)N(Cc4ccccc4)C(=O)[C@@H]3CC[C@@H]12

>  <VALUE KIND>
composite z-score

>  <RECORDED VALUE>
0.213

$$$$
>  <MOLECULE>
CO[C@H]1COC(=O)[C@@H](C)COC(=O)[C@H](COCc2ccccc2)NC(=O)CC=C[C@H]1C

>  <VALUE KIND>
composite z-score

>  <RECORDED VALUE>
-0.81

$$$$

Taken from PubChem BioAssay.
